biological target: UniProt:P30968; experiment: Binding inhibition towards human pituitary gonadotropin-releasing hormone receptor using [125I]buserelin.
IC50 strictly under 1 nM means MET; at 1 nM or over means NOT MET.

Known results for compounds:
{"ENTRY_SMILES": "Cc1cc(C)cc(-c2[nH]c3ccc(C(C)(C)C(=O)N4C[C@H]5CC[C@@H]4C5)cc3c2[C@H](C)CNCCc2ccncc2)c1", "CATEGORY": "NOT MET"}
{"ENTRY_SMILES": "Cc1cc(C)cc(-c2[nH]c3ccc(C(C)(C)C(=O)N(CC(C)C)CC(C)C)cc3c2[C@H](C)CNCCCCc2ccncc2)c1", "CATEGORY": "NOT MET"}
{"ENTRY_SMILES": "Cc1cc(C)cc(-c2[nH]c3ccc(C(C)(C)C(=O)N4C[C@H]5CCCC[C@H]5C4)cc3c2[C@H](C)CNCCCCc2ccncc2)c1", "CATEGORY": "NOT MET"}

Req: Is the reported IC50 for `Cc1cc(C)cc(-c2[nH]c3ccc(C(C)(C)C(=O)N4CC(C)(C)C4)cc3c2[C@H](C)CNCCCCc2ccncc2)c1` strictly below 1 nM?
Resp: MET

Req: Report whether reported IC50 is lower than 1 nM (strictly) for `Cc1cc(C)cc(-c2[nH]c3ccc(C(C)(C)C(=O)N4CC5CCC4CC5)cc3c2[C@H](C)CNCCc2cc(C)c(=O)n(C)c2)c1`
Resp: MET

###

molecular target: Gonadotropin-releasing hormone receptor (Homo sapiens, UniProt P30968); experiment: Binding inhibition towards human pituitary gonadotropin-releasing hormone receptor using [125I]buserelin.
Sequence (P30968 whole entry): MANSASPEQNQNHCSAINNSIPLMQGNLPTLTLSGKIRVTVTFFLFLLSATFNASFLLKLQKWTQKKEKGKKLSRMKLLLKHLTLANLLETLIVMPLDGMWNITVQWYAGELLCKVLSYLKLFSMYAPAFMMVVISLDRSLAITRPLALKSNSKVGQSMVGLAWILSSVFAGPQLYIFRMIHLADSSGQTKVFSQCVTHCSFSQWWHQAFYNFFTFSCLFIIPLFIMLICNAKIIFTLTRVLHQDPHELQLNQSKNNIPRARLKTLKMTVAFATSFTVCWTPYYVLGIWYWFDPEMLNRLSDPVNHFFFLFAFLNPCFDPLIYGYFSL
Measured pIC50 of individual entries
Scale explanation: pIC50 corresponds to minus log10 of a concentration expressed in moles per litre.

Some solved cases for reference:
{"COMPOUND": "Cc1cc(C)cc(-c2[nH]c3ccc(C(C)(C)C(=O)N4C5CCC4CC5)cc3c2[C@H](C)CNCCc2ccncc2)c1", "pIC50": 9.10}
{"COMPOUND": "Cc1cc(C)cc(-c2[nH]c3ccc(C(C)(C)C(=O)N4C5CCC4CC5)cc3c2[C@H](C)CNCCCCc2ccncc2)c1", "pIC50": 9.15}
{"COMPOUND": "Cc1cc(C)cc(-c2[nH]c3ccc(C(C)(C)C(=O)N4CC5CCCC4C5)cc3c2[C@H](C)CNCCCCc2ccncc2)c1 (some centres undefined)", "pIC50": 8.32}

Below: the item to evaluate.
Req: Returns the measured pIC50 for the input compound. Input: `Cc1cc(C)cc(-c2[nH]c3ccc(C(C)(C)C(=O)N4CC5CCC4CC5)cc3c2[C@H](C)CNCCc2ccncc2)c1`
Resp: 9.22
